- target or test system: T1, active human ETA (purified) (human, UniProt P25101 21-427)
- T1 construct: also called human endothelin receptor type A
- T1 sequence: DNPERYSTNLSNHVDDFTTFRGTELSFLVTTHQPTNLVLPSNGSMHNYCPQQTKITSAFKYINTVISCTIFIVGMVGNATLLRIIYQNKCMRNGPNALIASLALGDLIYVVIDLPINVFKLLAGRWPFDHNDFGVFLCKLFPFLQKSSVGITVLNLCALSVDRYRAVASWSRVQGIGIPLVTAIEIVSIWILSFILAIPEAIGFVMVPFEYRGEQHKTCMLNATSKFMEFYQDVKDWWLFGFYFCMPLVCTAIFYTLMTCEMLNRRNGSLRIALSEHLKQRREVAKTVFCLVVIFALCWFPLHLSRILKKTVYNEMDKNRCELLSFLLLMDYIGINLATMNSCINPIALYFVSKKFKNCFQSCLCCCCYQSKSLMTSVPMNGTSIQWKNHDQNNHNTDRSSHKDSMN
- test protocol: ELISA on purified active ETA
property name: binding result

GG12 (antibody, V domains shown, also called lead antibody) VH: EVQLVESGAEVRKPGASVKVSCKASGYTFTSSDINWIRQATGQGLEWMGYMNPKNGNTDYAQKFQGRISMTRDSSISTAYMELSSLRSEDTAVYYCAKDRYGSGVYGFGMDVWGPGTLVT VL: DIVMTQSPSAMSASVGDRVSITCRASQGINNYLAWFQQKPGKVPKRLMDVGSILQSGIPSRFRGRGSGTQFTLTISSLQAEDSGTYFCLQHNTYPLTFGPGTKVEIKR ... binds
EF12 (antibody, V domains shown, also called lead antibody) VH: EVQLVESGAEVRKPGASVKVSCKASGYTFTSSDINWIRQATGQGLEWMGYMNPKNGNTDYAQKFQGRISMTRDSSISTAYMELSSLRSEDTAVYYCAKDPYGSGTYGFGMDVWGPGTLVT VL: DIVMTQSPSAMSASVGDRVSITCRASQGINNYLAWFQQKPGKVPKRLMDVGSILQSGIPSRFRGRGSGTQFTLTISSLQAEDSGTYFCLQHNTYPLTFGPGTKVEIKR ... binds
AB9 (antibody, V domains shown, also called lead antibody) VH: EVQLVESGAEVRKPGASVKVSCKASGYTFTSSDINWIRQATGQGLEWMGYMNPKNGNTDYAQKFQGRISMTRDSSISTAYMELSSLRSEDTAVYYCAKDRYGSGTYGEGMDVWGPGTLVT VL: DIVMTQSPSAMSASVGDRVSITCRASQGINNYLAWFQQKPGKVPKRLMDVGSILQSGIPSRFRGRGSGTQFTLTISSLQAEDSGTYFCLQHNTYPLTFGPGTKVEIKR ... binds
FG12 (antibody, V domains shown, also called lead antibody) VH: EVQLVESGAEVRKPGASVKVSCKASGYTFTSSDINWIRQATGQGLEWMGYMNPKNGNTDYAQKFQGRISMTRDSSISTAYMELSSLRSEDTAVYYCAKDRYGLGTYGFGMDVWGPGTLVT VL: DIVMTQSPSAMSASVGDRVSITCRASQGINNYLAWFQQKPGKVPKRLMDVGSILQSGIPSRFRGRGSGTQFTLTISSLQAEDSGTYFCLQHNTYPLTFGPGTKVEIKR ... binds
